Give measured Cmax for each item. Keep answers brief.
- Protocol Notes: Cmax in Nocardia brasiliensis HUJEG-1 infected BALB/c mouse at 25 mg/kg, sc every 8 hrs by HPLC
- Format: ADME, organism-based
- Set-up: dose 25 mg/kg, route subcutaneous
- Study Conditions: in vivo
Number only, in ng/mL; omit the unit.

Value of measured Cmax for the entry "COc1c(N2C[C@@H]3CCCN[C@@H]3C2)c(F)cc2c(=O)c(C(=O)O)cn(C3CC3)c12" : 4300

Value of measured Cmax for the entry "O=C(O)c1cn(C2CC2)c2cc(N3CCNCC3)c(F)cc2c1=O" : 2250
